Ref: patent US9024044B2

- study system: human trypsin (Homo sapiens)
Where a name gives a salt, the structure may show the parent alone.
endpoint: Ki (nM)

CC(C)(Cc1ccc(C(=O)Oc2ccc(C(=N)N)cc2F)s1)C(=O)N1C[C@H]1C(=O)O ... 0.96
CCC(CC)(Cc1ccc(C(=O)Oc2ccc(C(=N)N)cc2F)s1)C(=O)N(C)CC(=O)O [Compound 21, hydrochloride] ... 1.76
CCC(CC)(Cc1ccc(C(=O)Oc2ccc(C(=N)N)cc2F)s1)C(=O)NC1(C(=O)O)CC1 ... 2.19
CC(C)[C@H](NC(=O)C(C)(C)Cc1ccc(C(=O)Oc2ccc(C(=N)N)cc2F)s1)C(=O)O [Compound 9, hydrochloride] ... 2.02
COc1ccc(NC(=O)C(C)(C)Cc2ccc(C(=O)Oc3ccc(C(=N)N)cc3F)s2)cn1 ... 3.36
CC(C)(Cc1ccc(C(=O)Oc2ccc(C(=N)N)cc2F)s1)C(=O)NCCc1nnn[nH]1 ... 1.6
CCC(CC)(Cc1ccc(C(=O)Oc2ccc(C(=N)N)cc2F)s1)C(=O)N[C@H](CO)C(=O)O ... 1.78

----------
- study system: recombinant human enteropeptidase (Homo sapiens (Human), UniProt P98073)
- Sequence (P98073 whole entry): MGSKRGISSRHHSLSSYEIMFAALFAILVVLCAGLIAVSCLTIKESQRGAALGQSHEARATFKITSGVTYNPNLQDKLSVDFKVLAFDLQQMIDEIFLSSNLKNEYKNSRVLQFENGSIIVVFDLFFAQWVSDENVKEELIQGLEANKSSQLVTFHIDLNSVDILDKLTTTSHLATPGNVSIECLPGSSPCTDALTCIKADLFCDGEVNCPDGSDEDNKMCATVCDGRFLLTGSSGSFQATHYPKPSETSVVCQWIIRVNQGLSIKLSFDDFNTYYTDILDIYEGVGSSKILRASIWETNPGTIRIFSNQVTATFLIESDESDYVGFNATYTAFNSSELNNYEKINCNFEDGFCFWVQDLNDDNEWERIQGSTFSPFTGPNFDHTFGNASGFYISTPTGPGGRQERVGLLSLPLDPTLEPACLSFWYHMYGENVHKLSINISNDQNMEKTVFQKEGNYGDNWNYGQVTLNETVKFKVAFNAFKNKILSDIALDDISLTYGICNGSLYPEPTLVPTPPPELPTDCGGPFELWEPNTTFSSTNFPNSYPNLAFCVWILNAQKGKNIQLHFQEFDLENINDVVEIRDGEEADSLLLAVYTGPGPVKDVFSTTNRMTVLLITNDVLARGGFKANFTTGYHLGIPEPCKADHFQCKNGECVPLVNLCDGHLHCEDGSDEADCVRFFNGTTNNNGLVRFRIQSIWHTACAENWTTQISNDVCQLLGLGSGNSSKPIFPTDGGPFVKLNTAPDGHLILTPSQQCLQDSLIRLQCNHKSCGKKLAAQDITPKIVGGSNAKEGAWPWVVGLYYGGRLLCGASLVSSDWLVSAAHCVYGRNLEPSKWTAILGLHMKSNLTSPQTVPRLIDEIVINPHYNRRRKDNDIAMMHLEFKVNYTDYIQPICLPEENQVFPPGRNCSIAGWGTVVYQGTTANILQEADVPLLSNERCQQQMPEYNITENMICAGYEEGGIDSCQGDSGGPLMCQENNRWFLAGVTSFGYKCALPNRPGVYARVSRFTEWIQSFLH
- assay protocol: Measurement of enteropeptidase inhibitory activity
- particulars: substrate Gly-Asp-Asp-Asp-Asp-Lys-β-Naphtylamide, Tris-HCl pH 8.0, Dixon plot
pKi: −log10 of the molar value. Where a name gives a salt, the structure may show the parent alone.
endpoint: pKi

Look over these answered cases.
C=CCN(CC(=O)O)C(=O)C(C)(C)Cc1ccc(C(=O)Oc2ccc(C(=N)N)cc2F)s1 ... 9.62
CCC[C@H](NC(=O)C(CC)(CC)Cc1ccc(C(=O)Oc2ccc(C(=N)N)cc2F)s1)C(=O)O ... 8.93
N=C(N)c1ccc(OC(=O)c2ccc(CC3(C(=O)N[C@@H](CC(=O)O)C(=O)O)CCC3)s2)c(F)c1 [Compound 1, trifluoroacetic acid salt] ... 9.85

(A) CCC(CC)(Cc1ccc(C(=O)Oc2ccc(C(=N)N)cc2F)s1)C(=O)NC1(C(=O)O)CC1
(B) CCC(CC)(Cc1ccc(C(=O)Oc2ccc(C(=N)N)cc2F)s1)C(=O)NCCCCCC(=O)O
q: Hi, I'm comparing A with B and wondering which one has the bigger number for pKi. Any idea? Give the label under which the chosen entry appears.
a: A
(A: 8.95, B: 8.30)

----------
- study system: recombinant human enteropeptidase (Homo sapiens (Human), UniProt P98073)
- assay protocol: Measurement of enteropeptidase inhibitory activity
- particulars: substrate Gly-Asp-Asp-Asp-Asp-Lys-β-Naphtylamide, Tris-HCl pH 8.0, Dixon plot
pKi: −log10 of the molar value.
endpoint: pKi

CCC(CC)(Cc1ccc(C(=O)Oc2ccc(C(=N)N)cc2F)s1)C(=O)NCCC[C@H](N)C(=O)O ... 8.26
CC(C)(Cc1ccc(C(=O)Oc2ccc(C(=N)N)cc2F)s1)C(=O)Nc1cccc(C(=O)O)c1 ... 8.84
CC(C)(Cc1ccc(C(=O)Oc2ccc(C(=N)N)cc2F)s1)C(=O)NC1(C(=O)O)CC1 ... 9.17
CC(C)(Cc1ccc(C(=O)Oc2ccc(C(=N)N)cc2F)s1)C(=O)Nc1ccc(C(=O)O)cc1 ... 8.97

(a) CCC(CC)(Cc1ccc(C(=O)Oc2ccc(C(=N)N)cc2F)s1)C(=O)NCCCCC(=O)O
(b) CCC(CC)(Cc1ccc(C(=O)Oc2ccc(C(=N)N)cc2F)s1)C(=O)N1CCC[C@H]1C(=O)O
q: In terms of reported pKi, does a or b have the smaller number? Reply briefly: the label of your chosen item.
a: b

(P) CCC(CC)(Cc1ccc(C(=O)Oc2ccc(C(=N)N)cc2F)s1)C(=O)NCc1nnn[nH]1
(Q) CC(C)(Cc1ccc(C(=O)Oc2ccc(C(=N)N)cc2F)s1)C(=O)NCC(=O)O
q: P or Q : whose pKi is greater? Identify your pick by its label.
a: Q
(Q: 9.54, P: 8.92)
